- measurementTarget: KRas^G12D (Homo sapiens, UniProt P01116, G12D)
- Construct: Biotinylated KRas (corresponding to amino acids 1-169, produced at Accelegan Inc.); biotin (biotinylated); purchased Accelegan Inc
- Sequence (P01116 1-169 isoform P01116-2 G12D): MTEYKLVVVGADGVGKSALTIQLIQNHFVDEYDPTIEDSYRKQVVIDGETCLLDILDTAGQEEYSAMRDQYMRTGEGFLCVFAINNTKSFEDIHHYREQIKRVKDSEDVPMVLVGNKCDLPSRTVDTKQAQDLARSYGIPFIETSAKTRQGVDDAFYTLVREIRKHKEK
- measurementNotes: KRas binding assay (TR-FRET tracer displacement), KRas G12D
readoutLabel: IC50 (nM)
Please respond with the number in nM and leave the unit unwritten.

Answered cases to consult:
{"compound": "CCc1c(F)ccc2cc(O)cc(-c3ncc4c(N5CCCn6nc(C(=O)N(C)C)cc6C5)nc(N5CC(N)C5)nc4c3F)c12", "measurementTarget": "KRas^G12D (Homo sapiens, UniProt P01116, G12D)", "reportedValue": 14}
{"compound": "CCc1c(F)ccc2cc(O)cc(-c3ncc4c(N5CCC(CC6CCCO6)C5)nc(OC[C@@]56CCCN5C[C@H](F)C6)nc4c3F)c12 (stereo partly shown)", "measurementTarget": "KRas^G12D (Homo sapiens, UniProt P01116, G12D)", "reportedValue": 867}
{"compound": "CCc1cccc2cc3[nH]ncc3c(-c3ncc4c(N5CCCC6(C5)NC(=O)NC6=O)nc(OC[C@@]56CCCN5C[C@H](F)C6)nc4c3F)c12 (stereo partly shown)", "measurementTarget": "KRas^G12D (Homo sapiens, UniProt P01116, G12D)", "reportedValue": 3}

Consider the compound Oc1cc(-c2ncc3c(N4C[C@@H]5C[C@H](C4)[C@H](O)C5)nc(OC[C@@]45CCCN4C[C@H](F)C5)nc3c2F)c2cccc(F)c2c1 . State its measured IC50.
32

Consider the compound CCc1c(F)ccc2cc(O)cc(-c3ncc4c(N5C[C@@H]6C[C@H](C5)[C@H](O)C6)nc(OC[C@@]56CCCN5C[C@H](OC)C6)nc4c3F)c12 . State its measured IC50.
2

Consider the compound CCc1c(F)ccc2cc(O)cc(-c3ncc4c(N5CCCC(C6CCC(=O)N6)C5)nc(OC[C@@]56CCCN5C[C@H](F)C6)nc4c3F)c12 (stereo partly shown) . State its measured IC50.
495

Consider the compound CCc1c(F)ccc2cc(O)cc(-c3ncc4c(N5C[C@H]6C[C@@H](C5)[C@H](O)[C@H]6O)nc(OC[C@@]56CCCN5C[C@H](F)C6)nc4c3F)c12 (single isomer, unassigned) . State its measured IC50.
5

Consider the compound CCc1c(F)ccc2cc(O)cc(-c3ncc4c(N5CCC[C@]6(CC[S@+]([O-])C6)C5)nc(OC[C@@]56CCCN5C[C@H](F)C6)nc4c3F)c12 (single isomer, unassigned) . State its measured IC50.
21
